Values compiled from paper PMC3131501.

studySystem: wild type (wt) BA2930 (Bacillus anthracis)
Sequence (A0A3P1UCA6 1-265): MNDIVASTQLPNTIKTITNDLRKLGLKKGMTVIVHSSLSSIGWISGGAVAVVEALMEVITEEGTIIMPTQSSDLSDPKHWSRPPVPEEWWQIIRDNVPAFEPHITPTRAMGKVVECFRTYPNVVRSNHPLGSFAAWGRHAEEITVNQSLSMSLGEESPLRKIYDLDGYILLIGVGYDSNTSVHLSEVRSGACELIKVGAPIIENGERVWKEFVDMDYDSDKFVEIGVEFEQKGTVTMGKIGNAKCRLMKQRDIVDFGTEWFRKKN
property: Kd (µM)
Answers are plain numbers, in µM.

The molecule listed as CC(=O)SCCNC(=O)CCNC(=O)[C@H](O)C(C)(C)COP(=O)(O)OP(=O)(O)OC[C@H]1O[C@@H](n2cnc3c(N)ncnc32)[C@H](O)[C@@H]1OP(=O)(O)O has a reported Kd of 33.4
